EXPERIMENT: Effective dose against human immuno deficiency virus-1/Ba-L in vitro in human monocyte-derived macrophages (MDM) cells
Assay type: functional
TEST CONDITIONS: read-out: ED50 (the source's name)
Please respond with reported pEC50 for every item in the list.
Bear in mind: pEC50 is minus log10 of a mol/L concentration; give just that figure.

Lab note: measured pEC50 of "CC(=O)N[C@@H](CSC(C)=O)C(=O)NCCSC(=O)C(C)C" was 4.35

Lab note: measured pEC50 of "CC(=O)N[C@@H](CS)C(=O)NCCS" was 4.40

Lab note: measured pEC50 of "CC(=O)N[C@@H](CS)C(=O)NCCSC(C)=O" was 4.35

Lab note: measured pEC50 of "CC(=O)N[C@@H](CS)C(=O)NCCSC(=O)C(C)C" was 3.96

Lab note: measured pEC50 of "CC(=O)N[C@@H](CS)C(=O)NCCSC(=O)C(C)(C)C" was 3.84

Lab note: measured pEC50 of "CC(=O)N[C@@H](CSC(=O)c1ccccc1)C(=O)NCCSC(=O)C(C)C" was 3.78

* * *

EXPERIMENT: Effective dose against human immuno deficiency virus-1/Ba-L in vitro in human monocyte-derived macrophages (MDM) cells
Type: functional
Binary call on ED90 with cut-off 200 µM: strictly below means class 1, and equality or higher means class 0.

Please determine if "CC(=O)N[C@@H](CSC(=O)c1ccccc1)C(=O)NCCSC(=O)C(C)C" is below 200 µM in terms of ED90. class 0

Please determine if "CC(=O)N[C@@H](CS)C(=O)NCCSC(=O)C(C)(C)C" is below 200 µM in terms of ED90. class 0

Please determine if "CC(=O)N[C@@H](CSC(C)=O)C(=O)NCCSC(=O)C(C)C" is below 200 µM in terms of ED90. class 1

Please determine if "CC(=O)N[C@@H](CS)C(=O)NCCSC(=O)C(C)C" is below 200 µM in terms of ED90. class 0

Values from ChEMBL document CHEMBL1149125
